Tested on: Staphylococcus aureus
Assay: Bactericidal activity against Staphylococcus aureus ATCC 29213 at pH 4 after 1 hr by CLSI method
Assay type: functional
Details: ATCC 29213, 1 h
Kindly state MBC for each of the entries shown.
# unit: µg/mL | format: bare number

stdin: Given CC(C)(CCS(=O)(=O)C[C@H](O)CO)N(Cl)Cl , state its recorded MBC.
stdout: 2

stdin: Now consider CC(C)(CCS(=O)(=O)C[C@@H](O)CO)N(Cl)Cl and answer again.
stdout: 1

stdin: Same again, this time with CC(=O)OCC(CS(=O)(=O)CCC(C)(C)N(Cl)Cl)OC(C)=O (centres undefined)
stdout: 2

stdin: How about this molecule: CC(C)(CCS(=O)(=O)CCO)N(Cl)Cl
stdout: 1
